molecular target: RSV F on RSV-A2 virus (Respiratory syncytial virus, RSV-A2, UniProt P03420 26-574); experiment: cell-based or functional assay
endpoint: Neutralization IC50 (RSV subtype A) (µg/mL)
Write it as a number; the unit µg/mL goes unstated.

Prompt: Report Neutralization IC50 (RSV subtype A) for ADI-41787 (antibody, V domains shown) VH: EVQLLESGGGVVQPGRSLRLSCAASGFTFSSSGMHWVRQAPGKGLEWVAIISSDGSKHYYADSVKGRFTISRDNSKNTLYLEMNSLRAEDSAVYYCAREGVWSGFFVDTGTDFRHHGMDVWGQGTTVTVSS VL: SYELTQPPSVSVSPGQTARITCSGDALPKKFAFWYQQKSGQAPLLVIHEDNKRPSGIPERFSGSSSGTLATLTISGAQVEDEADYYCYSIDTSANLGVFGGGTKLTVL please.
Completion: 0.38
